assay: Toxicity liver stage against HepG2, at 10uM; format: cell-based; parameters: test concentration 10 uM, cell line HepG2-A16-CD81EGFP; settings: human, HepG2-A16-CD81EGFP cells; read-out: INHIBITION
TEST READOUT: cytotoxicity at 10 µM (%)
Answers are plain numbers, in %.

Below, each entry is followed by its recorded cytotoxicity at 10 µM result.
MOLECULE: Cc1noc(C)c1C(=O)NCc1ccc(N2CCOCC2)nc1
TEST READOUT: cytotoxicity at 10 µM
UNIT ABBREVIATION: %
VALUE REPORTED: -7.91
--
MOLECULE: CN(C(=O)NCC1(CN2CCOCC2)CCCCC1)C1CC1
TEST READOUT: cytotoxicity at 10 µM
UNIT ABBREVIATION: %
VALUE REPORTED: -1.91
--
MOLECULE: CCNC(=O)CC1CC2(CCN(C(C)=O)CC2)c2cc(F)ccc21 (configuration not stated)
TEST READOUT: cytotoxicity at 10 µM
UNIT ABBREVIATION: %
VALUE REPORTED: 6.83

Provide the reported cytotoxicity at 10 µM of each entry below, same order.
1. Cc1nnsc1C(=O)NCc1nn(C)c2c1COCC2
2. Cc1n[nH]c(C)c1CNC(=O)NC1CCCCC1
3. COCCN(C(=O)c1c[nH]c2ncccc12)C1CCCC1

Result string:
1. -0.543
2. 1.91
3. -3.08

Provide cytotoxicity at 10 µM for all items below, preserving their order.
1. CC(C)(CNC(=O)c1ccc(Cl)o1)NC(=O)OC(C)(C)C
2. CC(C)C(C(=O)NC1CC1)n1cnc2cc(F)c(F)cc21 (configuration not stated)
3. CN(C)c1ncnc2c1CCN(CC1CCOC1)CC2 (configuration not stated)
4. CC(C)N1CC(C(=O)N2CCC(Oc3ccccc3Cl)CC2)CC1=O (configuration not stated)
5. COc1ccc(Cc2ncc3c(n2)CN(C(=O)CN(C)C)C3)cc1
6. O=C(c1cscn1)N1C[C@H]2CCCC(OCc3cccnc3)[C@H]2C1 (some centres not stated)

Result string:
[-2.25, 15.3, 0.745, -3.21, -1.28, -6.61]

====

experiment: Toxicity liver stage against HepG2, at 10uM; type: cell-based; design: test concentration 10 uM, cell line HepG2-A16-CD81EGFP; settings: human, HepG2-A16-CD81EGFP cells; read-out: INHIBITION
Give measured cytotoxicity at 10 µM for each item. Keep answers brief.

Go through the list and state cytotoxicity at 10 µM for each entry.
1. O=C(Cc1ccc(F)cc1)N1CCCCC1c1ccn2ccnc2n1 (stereo unspecified)
2. O=C(CCc1ccc2c(c1)OCO2)Nc1cccnc1-n1cncn1

Result string:
-0.722%
4.98%

====

Give measured cytotoxicity at 10 µM for each item. Keep answers brief.
test: Toxicity liver stage against HepG2, at 10uM; format: cell-based; design: test concentration 10 uM, cell line HepG2-A16-CD81EGFP; conditions: human, HepG2-A16-CD81EGFP cells; read-out: INHIBITION
Answers are plain numbers, in %.

MOLECULE: O=C(N[C@H]1CN(Cc2cccs2)[C@@H]2CCCO[C@H]12)c1cccnc1
UNIT ABBREVIATION: %
cytotoxicity at 10 µM: -5.24
--
MOLECULE: CN(Cc1ccccc1NCc1ncc[nH]1)C(=O)c1cccs1
UNIT ABBREVIATION: %
cytotoxicity at 10 µM: -3.21

For the 5 molecules below, give their cytotoxicity at 10 µM values.
1. CCCc1nc(CN(C)CC2CCN(CCO)CC2)no1
2. CCOc1ccc(Cl)cc1CCNC(=O)c1ccc(=O)n(C)c1
3. CCC1CN(c2cnn(C)c(=O)c2Br)CCO1 (centres undefined)
4. Cc1nnc(CN2CCCC(c3cc(C(N)=O)[nH]n3)C2)o1 (centres undefined)
5. CCN1CC[C@@]2(C(=O)Nc3ccccc3)CCN(S(C)(=O)=O)CC[C@@H]12

Result string:
1: 2.64; 2: 3.31; 3: -5.09; 4: -7.32; 5: 7.14

Please give cytotoxicity at 10 µM for each item listed below.
1. CN(CCc1ccccn1)C(=O)c1cccs1
2. Cn1cc(N2CC3(CCN(Cc4cccs4)CC3)OCC2=O)cn1
3. COCC(O)CN1CCC(=O)N(Cc2ccccc2)Cc2ccccc21 (centres undefined)

Result string:
3.45
-8.13
1.19
